Reference source for all entries: PubChem BioAssay (NCI)

Test system: UACC-62 melanoma
PROCEDURE_TEXT: NCI tumour cell line growth inhibition, 48 h
Some molecules, each annotated with its measured TGI.

Here is how some molecules turned out for TGI.
- C[N+](C)(C)CC(=O)N/N=C(/Cc1cc(=O)oc2cc(O)ccc12)C(=O)Nc1ccc(Cl)cc1: > 100 µM
- COC1OC2COC(c3ccccc3)OC2C(O)C1OC(=S)c1ccccc1 (stereo not given): > 100 µM
- CN1Nc2ccccc2CC1=O: > 100 µM
- O=C(CN1C(=O)CC(c2ccccc2)(c2ccccc2)C1=O)N1CCN(CCO)CC1: > 100 µM
- O[C@H]1[C@H](O)[C@@H](O)CN2CC[C@H](O)[C@H]12: > 100 µM
- O=C1C/C(Br)=C\c2ccccc2-c2ccccc21: 5.09 µM
- CC1OC(O[C@H]2C3C=CO[C@@H](OC4OC(CO)C(O)C(O)C4O)C3[C@@]3(COC(=O)/C=C/c4ccccc4)O[C@@H]23)C(O)C(O)C1O (stereo not given in full): > 100 µM
- CN(C)CCNC(=O)Cc1ccccc1Nc1c(Cl)cccc1Cl: 33.3 µM
- CO/N=C(/C(=O)OC)c1ccccc1COc1ccccc1C(F)(F)F: > 100 µM
- CC(C)C1CN(C(=O)OCc2ccccc2)C2N1C(=O)C2(C)OCc1ccccc1 (stereo not given): > 100 µM

Then this molecule:
[ask] Report TGI for CN1Cc2c(nc(-c3ccccc3)c[n+]2[O-])N(C)C1
[reply] > 100 µM

###

Test system: HOP-92 NSCLC
PROCEDURE_TEXT: NCI tumour cell line growth inhibition, 48 h
EXPERIMENTAL_ENDPOINT: TGI

[ask] Report TGI for O=C(O)C(O)C(O)C(O)C(O)CO (centres undefined)
[reply] > 100 µM

###

System: SR leukemia
PROCEDURE_TEXT: NCI tumour cell line growth inhibition, 48 h
EXPERIMENTAL_ENDPOINT: TGI (µM)
Numeric only. Scale: µM

Here is how some compounds turned out for TGI.
• CNCCCNc1ccnc2cc(Cl)ccc12 = 70.8
• CCN(Cc1c(F)cccc1OC)c1ccc(CO)c(Cl)c1 = 55.5

[ask] Identify measured TGI obtained with SR leukemia for COc1cc(Nc2ccc3c(c2)CCC3)nc(OC)n1 .
[reply] 77.8

###

Tested on: HL-60(TB) leukemia
PROCEDURE_TEXT: NCI tumour cell line growth inhibition, 48 h
EXPERIMENTAL_ENDPOINT: TGI

[ask] Report TGI for COc1c(C)c(OCC=C(C)C)cc(CO)c1CO
[reply] > 100 µM

[ask] Report TGI for C=C(CN(C)C)C(=O)c1ccc(C(=O)C(=C)CN(C)C)cc1
[reply] > 100 µM

[ask] Report TGI for Cc1ccnc(NC(=S)Nc2ccc([N+](=O)[O-])cc2)c1
[reply] > 100 µM

[ask] Report TGI for O=C(NN1C(=O)CS(=O)(=O)C1c1ccc(C(F)(F)F)cc1)c1ccncc1 (stereo not drawn)
[reply] > 100 µM

[ask] Report TGI for O=C1C=C(Nc2ccc(Cl)cc2C(=O)c2ccccc2)c2ccccc2C1=O
[reply] > 100 µM

[ask] Report TGI for COc1ccc(-c2c(C#N)c(N3CCOCC3)nc3[nH]c(=S)[nH]c(=S)c23)cc1OC
[reply] > 100 µM

[ask] Report TGI for Cc1cc2c(cc1C)[n+](=O)cc(C(=O)C/C(=N/NC(=S)NN)C(=O)Nc1cccc(C(F)(F)F)c1)n2[O-]
[reply] > 100 µM

###

Test system: HT29 colon
PROCEDURE_TEXT: NCI tumour cell line growth inhibition, 48 h
EXPERIMENTAL_ENDPOINT: TGI

* CC[C@@H]1NC(C(=O)OC)Cc2c1[nH]c1ccccc21 (stereo partly drawn) | > 100 µM

[ask] Report TGI for CC12c3c4ccc(C=O)c3Oc3ccc(C=O)c(c31)Oc1ccc(C=O)c(c12)O4
[reply] > 25 µM

[ask] Report TGI for CC1=C(C#N)c2nc3ccccc3n2C(=O)C1(C)CCO (stereo not drawn)
[reply] > 100 µM

###

Test system: UO-31 renal
PROCEDURE_TEXT: NCI tumour cell line growth inhibition, 48 h
EXPERIMENTAL_ENDPOINT: TGI

• O=C(Nc1ncc(Cc2cccc(C(F)(F)F)c2)s1)c1ccc2c(c1)OCCO2 = > 100 µM
• CCSc1nc(N=Cc2ccccc2O)c2cn[nH]c2n1 = > 100 µM

Then this compound:
[ask] Report TGI for CC(C(=O)COCc1ccccc1)P1(=O)OC(C)(C)CN1C(C)(C)C (stereo not drawn)
[reply] > 100 µM

###

Tested on: K-562 leukemia
PROCEDURE_TEXT: NCI tumour cell line growth inhibition, 48 h
Some compounds, each annotated with its measured TGI.

Here is how some compounds turned out for TGI.
- CC(C)Oc1cccc(N2C(=NCc3c[nH]c4ccccc34)Nc3ccncc3S2(=O)=O)c1: > 100 µM
- Cc1ccsc1/C=N/Nc1cnccn1: > 100 µM
- CC12c3ccccc3C(OC=O)(c3ccccc31)C1(C)c3ccccc3C2(OC=O)c2ccccc21: > 100 µM
- CCOC(=O)C(Br)=C1OC(=O)c2ccccc2-c2ccccc21 (mixture of isomers): 22.7 µM
- CN(Cc1cnc2nc(N)nc(N)c2n1)c1ccc(C(=O)N[C@@H](CCS(=O)(=O)O)C(=O)O)cc1: > 100 µM
- O=C(Nc1ncc(Cc2cccc(C(F)(F)F)c2)s1)c1ccc2c(c1)OCCO2: > 100 µM
- CC[C@]1(O)C[C@H]2CN(CCc3c([nH]c4ccccc34)C(C(=O)OC)(c3cc4c(cc3OC)N(C)[C@H]3[C@@](O)(C(=O)OC)[C@H](OC(C)=O)[C@]5(CC)[C@@H]6C[C@@H]6CN6CC[C@]43[C@@H]65)C2)C1 (stereo partly specified): 2.82 µM
- COC1OC2COC(c3ccccc3)OC2C(O)C1OC(=S)c1ccccc1 (stereo unspecified): > 100 µM

[ask] Identify measured TGI obtained with K-562 leukemia for CCc1c(O)c(O)c(C(C)=O)c2c(O)c(-c3c(C)cc4c(CC)c(O)c(O)c(C(C)=O)c4c3O)c(C)cc12 .
[reply] 11.3 µM

[ask] Identify measured TGI obtained with K-562 leukemia for CC(=O)N/C(=C\c1ccccc1/C=C(\NC(C)=O)c1nc2cc(C)c(C)cc2[nH]1)c1nc2cc(C)c(C)cc2[nH]1 .
[reply] 95.5 µM

[ask] Identify measured TGI obtained with K-562 leukemia for C[C@@H]1CC[C@H]2[C@H]1[C@H]1[C@@H](CC[C@]2(C)N=C=S)C1(C)C .
[reply] 35.7 µM

[ask] Identify measured TGI obtained with K-562 leukemia for C/C(=N\NC(N)=O)c1sc(-c2nc(C)c(/C(C)=N/NC(N)=O)s2)nc1C .
[reply] > 100 µM

[ask] Identify measured TGI obtained with K-562 leukemia for CN1Cc2c(nc(-c3ccccc3)c[n+]2[O-])N(C)C1 .
[reply] > 100 µM

[ask] Identify measured TGI obtained with K-562 leukemia for [N-]=[N+]=NC1(c2ccccc2)C(=O)c2cccc3c2N(CCC3)C1=O (stereo unspecified) .
[reply] 89.4 µM

[ask] Identify measured TGI obtained with K-562 leukemia for O=C(c1ccc([N+](=O)[O-])cc1[N+](=O)[O-])N(/N=C/C=C/c1ccccc1)c1nnc(-c2ccccc2)c(-c2ccccc2)n1 .
[reply] 57.3 µM

[ask] Identify measured TGI obtained with K-562 leukemia for Cc1cc(C[C@H]2O[C@@H]3OC(C)(C)O[C@@H]3[C@H]3OC(C)(C)O[C@H]32)c2ccccc2n1 .
[reply] > 100 µM

[ask] Identify measured TGI obtained with K-562 leukemia for Cc1nc2c(Br)cc(Br)cc2c(=O)n1-c1nnc(-c2cccc(Cl)c2Cl)c(N)n1 .
[reply] 22.6 µM

[ask] Identify measured TGI obtained with K-562 leukemia for COc1cc(/C=C2\CCCCC3=C2N=C2SC(C)=CN2C3c2cc(OC)c(OC)c(OC)c2)cc(OC)c1OC (stereo unspecified) .
[reply] > 100 µM

###

Test system: OVCAR-8 ovarian
PROCEDURE_TEXT: NCI tumour cell line growth inhibition, 48 h
EXPERIMENTAL_ENDPOINT: TGI

• O=C(c1ccc([N+](=O)[O-])cc1[N+](=O)[O-])N(/N=C/C=C/c1ccccc1)c1nnc(-c2ccccc2)c(-c2ccccc2)n1 = 67.8 µM
• C=C1C(=O)[C@@]23CC[C@@H]4[C@@]5(C)CCC[C@@]4(OC5=O)[C@@]2(C)CC[C@@H]1C3 = 8.54 µM
• CCC(C)(C)n1c(C)nc2c1C(=O)c1ccccc1C2=O = > 100 µM
• O=C(c1ccccc1)c1ccc2c(c1)NC(=O)c1ccccc1SSc1ccccc1C(=O)N2 = > 100 µM
• CC1OC(O[C@H]2C3C=CO[C@@H](OC4OC(CO)C(O)C(O)C4O)C3[C@@]3(COC(=O)/C=C/c4ccccc4)O[C@@H]23)C(O)C(O)C1O (some centres undefined) = > 100 µM

[ask] Report TGI for CCOC(=O)c1c(C)c2c(n1Cc1ccccc1)CSCC2=O
[reply] > 100 µM

[ask] Report TGI for CCOc1ccc(NC(=O)CC2SC(=Nc3ccc(C)cc3C)NC2=O)cc1 (centres undefined)
[reply] > 100 µM

[ask] Report TGI for Nc1nc(Cl)nc2c1ncn2C1CC(O)C(CO)O1 (centres undefined)
[reply] > 100 µM

[ask] Report TGI for CCOC(=O)/C(C(C)=O)=C(\OC(C)=O)c1ccncc1C(=O)O
[reply] > 100 µM
